# target-or-system: mushroom tyrosinase (Agaricus bisporus, UniProt C7FF04+C7FF05+O42713+Q00024)
# experiment-summary: Drug metabolism assessed as mushroom tyrosinase-mediated compound oxidation by Michaelis-Menten plot analysis
# Assay type: ADME
# condition-summary: mushroom tyrosinase
Km overview
Number only, in µM; omit the unit.

[[record]]
smiles_data = "CN(/N=N/c1ccc(C#N)cc1)C(=O)CCCCc1ccc(O)cc1"
experimental_endpoint = "Km"
quantitative_result = 860


GET /value?item= "COC(=O)c1ccc(/N=N/N(C)C(=O)CCCCc2ccc(O)cc2)cc1" &field=Km returns 1080

###

# experiment-summary: Half life in deuterated phosphate buffer at pH 7.8 by 1H-NMR spectra analysis
# Type: physicochemical
experimental-endpoint: half-life

Example results:
[[record]]
smiles_data = "CCOC(=O)N(C)/N=N/c1nc(OCc2ccccc2)c2nc[nH]c2n1"
result = "0.4 to 58.3 h"

[[record]]
smiles_data = "CCOc1nc(/N=N/N(C)C(=O)Oc2ccc(S(N)(=O)=O)cc2)nc2[nH]cnc12"
result = "0.4 to 58.3 h"

[[record]]
smiles_data = "CC(=O)Nc1ccc(OC(=O)N(C)/N=N/c2nc(OCc3ccccc3)c3nc[nH]c3n2)cc1"
result = "0.4 to 58.3 h"

[[record]]
smiles_data = "CC(=O)N(C)/N=N/c1nc(OCc2ccccc2)c2nc[nH]c2n1"
result = "22.1 to 58.3 h"

[[record]]
smiles_data = "CN(/N=N/c1nc(OCc2ccccc2)c2nc[nH]c2n1)C(=O)Oc1ccccc1"
result = "0.4 to 58.3 h"


The compound identified as "CN(/N=N/c1nc(OCc2ccccc2)c2nc[nH]c2n1)C(=O)c1ccc([N+](=O)[O-])cc1" registered its half-life at 22.1 to 58.3 h

For this compound ( "CN(/N=N/c1nc(OCc2ccccc2)c2nc[nH]c2n1)C(=O)c1ccccc1" ), measured half-life is 22.1 to 58.3 h

// "CCOc1nc(/N=N/N(C)C(=O)Oc2ccc(C(=O)OC)cc2)nc2[nH]cnc12" : half-life value = 0.4 to 58.3 h

"CN(/N=N/c1nc(OCc2ccccc2)c2nc[nH]c2n1)C(=O)c1cccnc1" has a reported half-life of 22.1 to 58.3 h

// half-life value for "CCOc1nc(/N=N/N(C)C(=O)Oc2ccc([N+](=O)[O-])cc2)nc2[nH]cnc12" : 0.4 to 58.3 h

Query "CN(/N=N/c1nc(OCc2ccccc2)c2nc[nH]c2n1)C(=O)Oc1ccc(C(N)=O)cc1" yields half-life of 0.4 to 58.3 h

###

# experiment-summary: Prodrug activation assessed as mushroom tyrosinase-mediated compound hydrolysis by measuring half life in presence of 100 U/ml of tyrosinase by HPLC analysis
# condition-summary: agaricus bisporus
experimental-endpoint: t1/2 (min)
Please state the figure in min; there is no need to write the unit.

Quick note, t1/2 for "CC(=O)c1ccc(/N=N/N(C)C(=O)CCCCc2ccc(O)cc2)cc1" landed at 1.31

Value of t1/2 reported for the compound "CN(/N=N/c1ccc(C#N)cc1)C(=O)CCc1ccc(O)cc1" is 1.5

###

# experiment-summary: Apparent partition coefficient, log P of the compound in 1-octanol/phosphate buffer at pH 7.4 measured after 30 mins by HPLC analysis
# Assay type: physicochemical
# condition-summary: read-out: LogD7.4
Items are presented alongside their recorded logD at 0.5 h.
// print number alone

[[record]]
smiles_data = "COC(=O)c1ccc(/N=N/N(C)C(=O)CCCCc2ccc(O)cc2)cc1"
experimental_endpoint = "logD at 0.5 h"
quantitative_result = 3.9


logD at 0.5 h recorded for this compound, "CN(/N=N/c1ccc(C#N)cc1)C(=O)CCCCc1ccc(O)cc1" , is 4.3

The measured logD at 0.5 h associated with "CN(/N=N/c1ccc(C#N)cc1)C(=O)Cc1ccc(O)cc1" reads 2.99

Looking up "CN(/N=N/c1ccc(Br)cc1)C(=O)CCCCc1ccc(O)cc1" , I found its logD at 0.5 h recorded as 4.32

logD at 0.5 h for "CN(/N=N/c1ccc(C#N)cc1)C(=O)CCc1ccc(O)cc1" is 3.4

Per the record, "CCOC(=O)c1ccc(/N=N/N(C)C(=O)CCCCc2ccc(O)cc2)cc1" has logD at 0.5 h of 4.5

logD at 0.5 h recorded for this compound, "CN(/N=N/c1ccc(C(N)=O)cc1)C(=O)CCc1ccc(O)cc1" , is 2.8

logD at 0.5 h reported for this compound "COC(=O)c1ccc(/N=N/N(C)C(=O)CCc2ccc(O)cc2)cc1" : 3.23

logD at 0.5 h reported for this compound "CC(=O)c1ccc(/N=N/N(C)C(=O)CCCCc2ccc(O)cc2)cc1" : 4

What the record says about "CN(/N=N/c1ccc(C#N)cc1)C(=O)CCc1cccc(O)c1" : logD at 0.5 h is 3.24

logD at 0.5 h for "Cc1ccc(/N=N/N(C)C(=O)CCCCc2ccc(O)cc2)cc1" is 4

# logD at 0.5 h (compound: "CN(/N=N/c1ccc(C(N)=O)cc1)C(=O)CCCCc1ccc(O)cc1" ) is 3.6

GET /value?item= "CC(=O)c1ccc(/N=N/N(C)C(=O)CCc2ccc(O)cc2)cc1" &field=logD at 0.5 h returns 3.05

get_value(item= "COC(=O)c1ccc(/N=N/N(C)C(=O)CCc2cccc(O)c2)cc1" , readout=logD at 0.5 h) returns 3.42

###

# target-or-system: Mushroom tyrosinase (Agaricus bisporus, UniProt O42713+Q00024+C7FF04+C7FF05)
# experiment-summary: Drug metabolism assessed as mushroom tyrosinase-mediated compound hydrolysis by measuring retention time by HPLC method
# Assay type: ADME
experimental-endpoint: Retention time

Memo: "Nc1ccccc1" , reported Retention time: 2 to 2.1 min

###

# target-or-system: mushroom tyrosinase (Agaricus bisporus, UniProt C7FF04+C7FF05+O42713+Q00024)
# experiment-summary: Drug metabolism assessed as mushroom tyrosinase-mediated compound consumption in presence of 100 U/ml of tyrosinase by HPLC method
# Format: ADME
# condition-summary: read-out: Drug metabolism
experimental-endpoint: metabolised
Respond with a number, then the unit of measure.

Given item "COC(=O)c1ccc(/N=N/N(C)C(=O)CCc2ccc(O)cc2)cc1" , the value recorded as its metabolised is 100%

"CC(=O)c1ccc(/N=N/N(C)C(=O)CCc2ccc(O)cc2)cc1" has a reported metabolised of 100%

Sure, the documented metabolised for "CN(/N=N/c1ccc(C(N)=O)cc1)C(=O)CCc1ccc(O)cc1" is 100%

# metabolised of "CN(/N=N/c1ccc(C#N)cc1)C(=O)CCc1ccc(O)cc1" = 100%

###

# experiment-summary: Half life in phosphate buffered saline at pH 7.4 by HPLC analysis
# Format: physicochemical
experimental-endpoint: half-life (days)
Your answer should be a plain number; it is taken to be in days.

Example entries begin here.
[[record]]
smiles_data = "CN(/N=N/c1ccc(C(N)=O)cc1)C(=O)CCc1ccc(O)cc1"
experimental_endpoint = "half-life"
quantitative_result = 4.92

[[record]]
smiles_data = "COC(=O)c1ccc(/N=N/N(C)C(=O)CCc2ccc(O)cc2)cc1"
experimental_endpoint = "half-life"
quantitative_result = 4.23

[[record]]
smiles_data = "COC(=O)c1ccc(/N=N/N(C)C(=O)CCc2cccc(O)c2)cc1"
experimental_endpoint = "half-life"
quantitative_result = 3.95


Now, please, on to the next compound.
Query "CN(/N=N/c1ccc(C#N)cc1)C(=O)CCc1cccc(O)c1" yields half-life of 2.5

###

# experiment-summary: Prodrug activation assessed as mushroom tyrosinase-mediated compound hydrolysis by measuring Pseudo first-order rate constants in presence of 100 U/ml of tyrosinase by HPLC analysis
# condition-summary: agaricus bisporus
experimental-endpoint: K (×10⁻³ /s)
Report the value in ×10⁻³ /s with no unit label.

Here's what some known entries look like.
[[record]]
smiles_data = "CN(/N=N/c1ccc(C(N)=O)cc1)C(=O)CCc1ccc(O)cc1"
experimental_endpoint = "K"
quantitative_result = 2.5

[[record]]
smiles_data = "CN(/N=N/c1ccc(C#N)cc1)C(=O)CCc1ccc(O)cc1"
experimental_endpoint = "K"
quantitative_result = 7.9

[[record]]
smiles_data = "COC(=O)c1ccc(/N=N/N(C)C(=O)CCc2ccc(OC(=O)CCc3ccc(O)cc3)cc2)cc1"
experimental_endpoint = "K"
quantitative_result = 1.8

[[record]]
smiles_data = "COC(=O)c1ccc(/N=N/N(C)C(=O)CCc2ccc(O)cc2)cc1"
experimental_endpoint = "K"
quantitative_result = 4.7

[[record]]
smiles_data = "CC(=O)c1ccc(/N=N/N(C)C(=O)CCc2ccc(O)cc2)cc1"
experimental_endpoint = "K"
quantitative_result = 3.2


Turning now to a further molecule:
Form: molecule = "CC(=O)c1ccc(/N=N/N(C)C(=O)CCc2ccc(OC(=O)CCc3ccc(O)cc3)cc2)cc1" ; K = 2.1
